STUDY_TARGET: Neuronal acetylcholine receptor; alpha4/beta2 (Rattus norvegicus, UniProt P09483+P12390)
Sequence (P09483 whole entry): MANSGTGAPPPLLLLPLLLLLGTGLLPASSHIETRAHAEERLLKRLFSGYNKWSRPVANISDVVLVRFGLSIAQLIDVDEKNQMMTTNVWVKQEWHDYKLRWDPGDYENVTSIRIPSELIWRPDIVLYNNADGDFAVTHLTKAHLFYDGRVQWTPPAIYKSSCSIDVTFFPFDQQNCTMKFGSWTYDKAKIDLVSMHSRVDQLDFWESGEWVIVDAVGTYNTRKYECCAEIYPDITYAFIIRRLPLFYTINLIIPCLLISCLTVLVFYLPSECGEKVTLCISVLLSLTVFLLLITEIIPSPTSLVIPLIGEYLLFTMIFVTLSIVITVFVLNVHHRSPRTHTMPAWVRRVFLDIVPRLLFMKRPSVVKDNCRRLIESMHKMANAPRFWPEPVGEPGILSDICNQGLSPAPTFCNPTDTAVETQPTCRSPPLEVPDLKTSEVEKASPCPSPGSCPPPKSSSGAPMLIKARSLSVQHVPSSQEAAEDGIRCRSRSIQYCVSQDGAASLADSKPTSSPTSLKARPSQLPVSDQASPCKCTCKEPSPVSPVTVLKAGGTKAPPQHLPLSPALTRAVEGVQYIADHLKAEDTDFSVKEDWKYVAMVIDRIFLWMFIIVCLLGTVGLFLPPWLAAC
Sequence (P12390 whole entry): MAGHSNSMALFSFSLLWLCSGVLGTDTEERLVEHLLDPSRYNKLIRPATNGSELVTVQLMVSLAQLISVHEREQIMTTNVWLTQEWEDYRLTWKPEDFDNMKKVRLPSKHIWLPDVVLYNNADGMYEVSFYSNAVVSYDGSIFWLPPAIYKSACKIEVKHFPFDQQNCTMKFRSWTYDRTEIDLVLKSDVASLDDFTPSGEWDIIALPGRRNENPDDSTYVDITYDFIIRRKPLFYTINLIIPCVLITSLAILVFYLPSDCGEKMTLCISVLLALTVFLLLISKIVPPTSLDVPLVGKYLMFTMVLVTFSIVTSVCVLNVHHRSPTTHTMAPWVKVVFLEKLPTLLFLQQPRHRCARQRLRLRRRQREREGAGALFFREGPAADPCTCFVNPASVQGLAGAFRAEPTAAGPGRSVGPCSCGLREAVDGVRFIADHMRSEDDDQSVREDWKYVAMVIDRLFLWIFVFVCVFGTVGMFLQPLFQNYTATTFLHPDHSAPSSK
ASSAY_INFO: Displacement of [3H]nicotine from alpha4beta2 nAChR in rat brain homogenate by liquid scintillation spectrophotometry
pKi: −log10 of the molar value.
QUANTITY_KIND: pKi

CN1C(CC(=O)c2ccccc2)CCC[C@H]1CC(OS(=O)(=O)c1ccc([N+](=O)[O-])cc1)c1ccccc1 (single isomer, unassigned); 7.89
Cc1ccc(S(=O)(=O)OC(C[C@@H]2CCCC(CC(=O)c3ccccc3)N2C)c2ccccc2)cc1 (single isomer, unassigned); 8.30
CN1C(CC(=O)c2ccccc2)CCC[C@H]1CC(OS(=O)(=O)c1ccccc1)c1ccccc1 (single isomer, unassigned); 8.10
CC(C)S(=O)(=O)OC(C[C@@H]1CCCC(CC(=O)c2ccccc2)N1C)c1ccccc1 (single isomer, unassigned); 7.82
